Cytochrome P450 3A4 (Homo sapiens, UniProt P08684): reported AC50 for various molecules.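 Also: CYP3A4 tested as one member of a cytochrome P450 panel screen.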
Sequence (P08684 whole entry): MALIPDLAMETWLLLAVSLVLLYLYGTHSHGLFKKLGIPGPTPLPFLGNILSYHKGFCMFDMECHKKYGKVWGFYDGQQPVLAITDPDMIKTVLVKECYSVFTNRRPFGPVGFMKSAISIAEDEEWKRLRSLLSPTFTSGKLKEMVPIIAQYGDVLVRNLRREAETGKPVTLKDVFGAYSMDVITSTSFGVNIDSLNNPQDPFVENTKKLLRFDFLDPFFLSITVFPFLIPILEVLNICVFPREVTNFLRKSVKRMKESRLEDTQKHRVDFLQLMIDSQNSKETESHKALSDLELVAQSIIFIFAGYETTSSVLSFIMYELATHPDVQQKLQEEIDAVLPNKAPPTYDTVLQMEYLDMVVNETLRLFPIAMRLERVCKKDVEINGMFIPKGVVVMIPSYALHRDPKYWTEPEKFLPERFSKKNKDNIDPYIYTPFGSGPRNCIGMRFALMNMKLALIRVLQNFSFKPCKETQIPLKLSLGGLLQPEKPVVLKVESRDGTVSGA
Experimental readout: AC50

                                   molecule  experimental_readout                reported
0  O=C(c1cc(C(F)(F)F)cc(C(F)(F)F)c1)N1CCC2(CCCN(c3ncccn3)C2)CC1                  AC50  15.8 µM (inconclusive)
1  FC(F)(F)c1cccc(N2CCN(CC3CC4C=CC3C4)CC2)c1 (stereo not given)                  AC50  39.8 µM (inconclusive)
2         COc1ccc2oc(C(=O)c3ccccc3)c(N)c2c1                  AC50  14.1 µM (inconclusive)
3            Cc1cc(Br)ccc1NC(=O)CCSc1ccccc1                  AC50  6.31 µM (inconclusive)
4  NC(=O)c1cc(N2CC2)c([N+](=O)[O-])cc1[N+](=O)[O-] [TRETAZICAR]                  AC50  39.8 µM (inconclusive)
5  C[N+]1(C)CCN(c2ccccc2)CC1 [DIMETHYLPHENYLPIPERAZINIUM]                  AC50    10 µM (inconclusive)
6            c1cnc(N2CC[C@@]3(CCCNC3)C2)nc1                  AC50  31.6 µM (inconclusive)
7  Cc1cc(C)nc(Nc2n[nH]c(COc3cccc4ccccc34)n2)n1                  AC50  2.24 µM (inconclusive)
8  CC(=O)OC1COC(N2CCc3cc([N+](=O)[O-])ccc32)C(OC(C)=O)C1OC(C)=O (stereo not given)                  AC50  25.1 µM (inconclusive)
9  O=C(CN1CCN(c2ccc(Cl)cc2)CC1)Nc1ccc(F)c(F)c1                  AC50  25.1 µM (inconclusive)

###

target: Induced myeloid leukemia cell differentiation protein Mcl-1 (Homo sapiens); assay type: functional
Sequence (Q07820 whole entry): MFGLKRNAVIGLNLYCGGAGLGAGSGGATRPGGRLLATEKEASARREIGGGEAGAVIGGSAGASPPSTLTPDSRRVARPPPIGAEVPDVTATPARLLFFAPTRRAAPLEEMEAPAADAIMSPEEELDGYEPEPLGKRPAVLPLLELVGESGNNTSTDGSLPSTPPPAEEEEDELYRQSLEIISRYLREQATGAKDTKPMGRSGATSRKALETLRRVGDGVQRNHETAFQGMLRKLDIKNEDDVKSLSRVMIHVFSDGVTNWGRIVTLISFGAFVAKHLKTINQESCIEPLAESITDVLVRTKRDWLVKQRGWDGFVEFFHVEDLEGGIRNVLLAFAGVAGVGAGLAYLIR
The source made the active and inactive calls.
Listing: IC50 of selected molecules
Experimental readout: IC50

>>> df
                                   molecule              reported
0  Cc1ccc2c(c1)C1CN(C)CCC1N2C(=O)Nc1cccc(Cl)c1 (stereo not drawn)  8.64 µM (not active)
1  Cc1ccc(NC(=O)CSc2nnc(-c3ccco3)c(-c3ccco3)n2)cc1      3.01 µM (active)
2  O=C1NC(=S)N(C2CC2)C(=O)/C1=C/c1ccc2c(c1)CCN2CCCCl      2.61 µM (active)

###

Cytochrome P450 2C9 (Homo sapiens): reported AC50 for various molecules.
Sequence (P11712 whole entry): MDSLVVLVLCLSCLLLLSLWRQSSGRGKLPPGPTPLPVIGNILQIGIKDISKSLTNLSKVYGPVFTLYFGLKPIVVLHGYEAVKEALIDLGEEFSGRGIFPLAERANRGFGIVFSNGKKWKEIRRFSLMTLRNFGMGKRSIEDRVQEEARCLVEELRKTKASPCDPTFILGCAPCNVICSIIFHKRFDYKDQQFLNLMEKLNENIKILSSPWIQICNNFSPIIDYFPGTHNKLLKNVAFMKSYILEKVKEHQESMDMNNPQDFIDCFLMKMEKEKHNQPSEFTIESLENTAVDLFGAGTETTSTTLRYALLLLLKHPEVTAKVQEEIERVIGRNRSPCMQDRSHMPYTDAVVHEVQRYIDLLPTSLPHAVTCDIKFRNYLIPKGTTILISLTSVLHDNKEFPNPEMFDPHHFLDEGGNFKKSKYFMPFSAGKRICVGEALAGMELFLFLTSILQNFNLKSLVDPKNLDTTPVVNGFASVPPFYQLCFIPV
Experimental readout: AC50

>>> print(df.to_string())
                                   molecule                 reported
0      CN(Cc1ccco1)c1ncncc1-c1ccc2c(c1)OCO2  0.794 µM (inconclusive)
1      N#CC(C#N)=Cc1ccc([N+](=O)[O-])c(O)c1   31.6 µM (inconclusive)
2  N#C/C(=C\c1c[nH]c2ccccc12)C(=O)c1ccc(O)c(O)c1   31.6 µM (inconclusive)
3  Cc1ccc2c(c1)C1CN(C)CCC1N2C(=O)Nc1cccc(Cl)c1 (centres undefined)   39.8 µM (inconclusive)
